This collection of values is drawn from the supplement of paper PMC10567573.

B1: ZNF649 (parent)
chain: YQAGKPDALTKLEQGEPLWTLEDE

- Variants of: B1
- Measurement Description: protein stability index of a GFP-peptide fusion (GPS, HEK-293T) (PSI 1-6); higher = more stable;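 note: lentivirally expressed fusions sorted by FACS into six bins by GFP to DsRed ratio, PSI derived from sequencing read proportions per bin multiplied by bin number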
- Measurement Conditions: c terminus: a fixed tail appended
Measured Property: protein stability index

Mutation Notation | Result Number
A3P | 4.36
L18M | 3.84
T20L | 3.15
D7H | 4.18
K11I | 4.54
P6A | 3.88
L12S | 4.52
L9K | 4.86
K11V | 4.69
Q2M | 4.63
E22K | 3.46
L12Q | 4.56
Y1Q | 5.46
L12F | 4.37
P6F | 3.31
K11F | 3.37
T20M | 5.05
G15C | 3.9
D7Y | 2.06
K5C | 4.72
K5E | 4.59
G15E | 4.88
P17H | 4.1
G15R | 2.82
G15T | 4.15
L21R | 4.55
T10K | 3.15
L9R | 4.29
P6M | 3.85
A8V | 3.51
W19A | 5.52
T10G | 3.69
E24I | 3.42
L12M | 4.54
W19R | 4.69
A3C | 3.83
A3Y | 4.25
T10W | 2.31
D7K | 3.66
L21Q | 4.23
K5R | 3.31
D23I | 1.84
Q2L | 3.1
G15K | 4.4
T10Q | 4.55
E16Q | 3.76
P6G | 4.99
D23N | 3.25
L21G | 4.4
Y1L | 4.51
P6K | 4.29
E22T | 4.28
E24A | 3.74
P17N | 4.41
L9T | 4.71
L21H | 5.03
A8H | 4.04
P6T | 4.64
K5F | 2.76
W19N | 5.2
E13T | 3.86
Q14R | 3.8
K11P | 5.28
A3L | 4.26
L21D | 4.89
L21T | 4.37
L21I | 4.06
W19T | 5.61
D7F | 2.49
Q2D | 5.48
A3M | 4.1
K11W | 2.86
P17F | 3.68
E16I | 2.1
Q14C | 4.66
Q2G | 4.38
L9V | 4.62
L12R | 4.4
E22V | 2.88
G4Y | 3.59
E16L | 3.66
Q2H | 3.08
E16T | 3.97
P17G | 3.47
